Target: HCV NS3/4A protease complex, J4L6S strain (Hepatitis C virus genotype 1b, UniProt O92972, C1454S/C1711G)
Construct: recombinant HCV NS3/4A protease complex (amino acids 1027 to 1711) for these strains
Sequence (O92972 1027-1711 C1454S/C1711G, one chain of several): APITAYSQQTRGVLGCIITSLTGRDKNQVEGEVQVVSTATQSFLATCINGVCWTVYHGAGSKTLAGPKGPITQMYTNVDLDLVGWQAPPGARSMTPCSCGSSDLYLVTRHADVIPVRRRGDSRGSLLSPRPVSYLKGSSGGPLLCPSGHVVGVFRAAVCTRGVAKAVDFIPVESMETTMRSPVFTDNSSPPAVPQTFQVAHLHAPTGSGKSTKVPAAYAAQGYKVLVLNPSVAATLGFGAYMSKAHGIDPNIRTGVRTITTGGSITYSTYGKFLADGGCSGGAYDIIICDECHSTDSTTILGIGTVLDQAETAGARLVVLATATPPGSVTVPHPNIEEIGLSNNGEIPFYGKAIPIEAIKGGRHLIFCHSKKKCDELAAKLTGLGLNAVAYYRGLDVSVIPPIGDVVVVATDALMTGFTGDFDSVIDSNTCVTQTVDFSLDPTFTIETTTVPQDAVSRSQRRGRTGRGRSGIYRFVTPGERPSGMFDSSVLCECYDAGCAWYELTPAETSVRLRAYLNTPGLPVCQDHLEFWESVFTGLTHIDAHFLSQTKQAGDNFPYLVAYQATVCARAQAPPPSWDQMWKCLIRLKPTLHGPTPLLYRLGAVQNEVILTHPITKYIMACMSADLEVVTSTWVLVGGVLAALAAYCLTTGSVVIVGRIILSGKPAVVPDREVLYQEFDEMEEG
Test: FRET peptide assay to monitor HCV NS3/4A proteolytic activity (J4L6S strain)
Conditions: read-out: IC50 against NS3/4A J4L6S strain
Measured attribute: IC50 (nM)
Please respond with the number in nM and leave the unit unwritten.

Need IC50, item "COc1c(O[C@@H]2C[C@H]3C(=O)N[C@]4(C(=O)NS(=O)(=O)C5CC5)C[C@H]4/C=C\CCCCC[C@H](NC(=O)OC(C)(C)C)C(=O)N3C2)ccc2c(Cl)nccc12"
0.47

---

Target: human neutrophil elastase (HNE) (Homo sapiens)
Sequence (P08246 30-267): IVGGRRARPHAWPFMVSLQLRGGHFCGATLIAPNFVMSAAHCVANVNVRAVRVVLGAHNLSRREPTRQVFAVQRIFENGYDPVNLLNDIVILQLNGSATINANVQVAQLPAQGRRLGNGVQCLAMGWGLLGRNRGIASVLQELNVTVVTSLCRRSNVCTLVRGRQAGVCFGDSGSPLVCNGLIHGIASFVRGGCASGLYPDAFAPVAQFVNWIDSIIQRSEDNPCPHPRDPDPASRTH
Test: Specificity assay, elastase (pNA substrate)
Details: read-out: HLE activity in the specificity assay (IC50)
Measured attribute: IC50

Name the reported IC50 value associated with the compound COc1c(O[C@@H]2C[C@H]3C(=O)N[C@]4(C(=O)NS(=O)(=O)C5CC5)C[C@H]4/C=C\CCCCC[C@H](NC(=O)OC(C)(C)C)C(=O)N3C2)ccc2c(Cl)nccc12 [Compound 3]
> 25 µM

---

Target: HCV NS3/4A protease complex, BMS strain (UniProt P27958, species not given/STRAIN_BMS)
Construct: said of H77 and J4L6S, not expressly of BMS; These are given for the H77 and J4L6S constructs only
Sequence (P27958 1027-1657, change not shown, one chain of several): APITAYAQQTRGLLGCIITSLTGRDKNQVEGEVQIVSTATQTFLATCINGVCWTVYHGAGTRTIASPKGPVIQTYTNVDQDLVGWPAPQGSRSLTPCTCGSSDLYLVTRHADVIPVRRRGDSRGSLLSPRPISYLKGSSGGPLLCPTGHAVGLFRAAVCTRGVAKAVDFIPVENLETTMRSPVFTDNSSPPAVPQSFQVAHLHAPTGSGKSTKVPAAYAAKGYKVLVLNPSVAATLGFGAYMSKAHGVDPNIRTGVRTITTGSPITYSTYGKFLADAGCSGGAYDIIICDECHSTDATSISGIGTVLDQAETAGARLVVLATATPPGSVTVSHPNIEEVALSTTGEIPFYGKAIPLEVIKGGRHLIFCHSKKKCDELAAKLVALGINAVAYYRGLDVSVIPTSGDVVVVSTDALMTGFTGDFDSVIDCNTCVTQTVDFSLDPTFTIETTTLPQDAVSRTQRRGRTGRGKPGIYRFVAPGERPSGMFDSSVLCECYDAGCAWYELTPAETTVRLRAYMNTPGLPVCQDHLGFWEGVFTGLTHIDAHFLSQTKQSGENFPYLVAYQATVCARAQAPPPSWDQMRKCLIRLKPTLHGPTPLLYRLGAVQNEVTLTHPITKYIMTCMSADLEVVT
Experiment: FRET peptide assay to monitor HCV NS3/4A proteolytic activity (BMS strain)
Conditions: NS3/4A BMS strain; read-out: IC50 Activity Range
Measured attribute: IC50

I am curious: what IC50 value has been reported for "CC(C)(C)OC(=O)N[C@H]1CCCCC/C=C\[C@@H]2C[C@@]2(C(=O)NS(=O)(=O)C2CC2)NC(=O)[C@@H]2C[C@@H](Oc3ccc([N+](=O)[O-])cc3)CN2C1=O" ?
< 100 nM

Looking for the measured IC50 of "CC(C)(C)OC(=O)N[C@H]1CCCCC/C=C\[C@@H]2C[C@@]2(C(=O)NS(=O)(=O)C2CC2)NC(=O)[C@@H]2C[C@@H](Oc3ccccn3)CN2C1=O" , can you help?
< 100 nM

Recorded IC50 of "CC(C)(C)OC(=O)N[C@H]1CCCOC/C=C\[C@@H]2C[C@@]2(C(=O)NS(=O)(=O)C2CC2)NC(=O)[C@@H]2C[C@@H](OC(C)(C)C)CN2C1=O" , please.
100 to 1000 nM

Which IC50 value is on record for "CC(C)(C)OC(=O)N[C@H]1CCCOC/C=C\[C@@H]2C[C@@]2(C(=O)NS(=O)(=O)C2CC2)NC(=O)[C@@H]2C[C@@H](OCc3ccccc3)CN2C1=O" ?
< 100 nM

Need IC50, item "COc1c(O[C@@H]2C[C@H]3C(=O)N[C@]4(C(=O)NS(=O)(=O)C5CC5)C[C@H]4/C=C\CCCCC[C@H](NC(=O)OC(C)(C)C)C(=O)N3C2)ccc2c(Cl)nccc12"
< 100 nM

---

Test system: HCV replicon in HUH-7 cells
Test: HCV replicon FRET assay
Format: cell-based, HCV strain 1b
Conditions: Hepatitis C virus, Huh-7; HCV replicon; which replicon assay not stated; read-out: EC50 Activity Range
Measured attribute: EC50

GET /values?readout=EC50&item= "CC(C)(C)OC(=O)N[C@H]1CCCCC/C=C\[C@@H]2C[C@@]2(C(=O)NS(=O)(=O)C2CC2)NC(=O)[C@@H]2C[C@@H](Oc3ccccn3)CN2C1=O"
0.1 to 1 µM

Look at this molecule and give its reported EC50. "CC(C)(C)OC(=O)N[C@H]1CCCCC/C=C\[C@@H]2C[C@@]2(C(=O)NS(=O)(=O)C2CC2)NC(=O)[C@@H]2C[C@@H](Oc3ccc([N+](=O)[O-])cc3)CN2C1=O"
> 1 µM

// EC50 lookup, key: "COc1c(O[C@@H]2C[C@H]3C(=O)N[C@]4(C(=O)NS(=O)(=O)C5CC5)C[C@H]4/C=C\CCCCC[C@H](NC(=O)OC(C)(C)C)C(=O)N3C2)ccc2c(Cl)nccc12"
< 0.1 µM

I have this molecule here, "CC(C)(C)OC(=O)N[C@H]1CCCOC/C=C\[C@@H]2C[C@@]2(C(=O)NS(=O)(=O)C2CC2)NC(=O)[C@@H]2C[C@@H](OCc3ccccc3)CN2C1=O" , and I need its recorded EC50.
> 1 µM

EC50 for "CC(C)(C)OC(=O)N[C@H]1CCCOC/C=C\[C@@H]2C[C@@]2(C(=O)NS(=O)(=O)C2CC2)NC(=O)[C@@H]2C[C@@H](OC(C)(C)C)CN2C1=O" ?
> 1 µM

---

Target: HCV NS3/4A protease complex, H77 strain (Hepatitis C virus genotype 1a, UniProt P27958, C1454S/C1711G)
Construct: recombinant HCV NS3/4A protease complex (amino acids 1027 to 1711) for these strains
Sequence (P27958 1027-1711 C1454S/C1711G, one chain of several): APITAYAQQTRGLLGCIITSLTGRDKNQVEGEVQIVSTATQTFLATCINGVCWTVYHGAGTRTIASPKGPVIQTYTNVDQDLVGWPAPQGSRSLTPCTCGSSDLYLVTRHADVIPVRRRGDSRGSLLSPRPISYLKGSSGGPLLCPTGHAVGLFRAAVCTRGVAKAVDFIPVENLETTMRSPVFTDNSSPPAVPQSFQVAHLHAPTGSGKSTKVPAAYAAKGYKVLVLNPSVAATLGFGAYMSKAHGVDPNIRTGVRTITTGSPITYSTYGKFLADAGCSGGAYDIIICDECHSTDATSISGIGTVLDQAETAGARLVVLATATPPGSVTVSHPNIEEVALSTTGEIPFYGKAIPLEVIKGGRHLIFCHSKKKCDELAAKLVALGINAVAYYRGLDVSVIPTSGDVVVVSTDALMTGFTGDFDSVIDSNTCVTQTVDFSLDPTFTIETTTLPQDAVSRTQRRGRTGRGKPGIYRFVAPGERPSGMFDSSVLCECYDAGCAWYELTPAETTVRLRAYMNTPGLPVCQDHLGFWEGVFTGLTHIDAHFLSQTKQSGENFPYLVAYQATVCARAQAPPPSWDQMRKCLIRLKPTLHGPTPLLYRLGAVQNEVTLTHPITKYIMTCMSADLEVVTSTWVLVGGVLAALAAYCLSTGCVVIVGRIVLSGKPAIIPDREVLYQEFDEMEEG
Experiment: FRET peptide assay to monitor HCV NS3/4A proteolytic activity (H77 strain)
Conditions: read-out: IC50 against NS3/4A H77 strain
Measured attribute: pIC50
The scale used: pIC50 is minus the common logarithm of the concentration in molar units.

Which value of pIC50 has been reported for COc1c(O[C@@H]2C[C@H]3C(=O)N[C@]4(C(=O)NS(=O)(=O)C5CC5)C[C@H]4/C=C\CCCCC[C@H](NC(=O)OC(C)(C)C)C(=O)N3C2)ccc2c(Cl)nccc12 [Compound 3] in the records?
9.22
